Where do the numbers come from? From the nanobody polyreactivity screen of Harvey et al. (2022).

Test: yeast display, Sf9 membrane polyspecificity reagent, FACS + sequencing; frameworks hold sequencing errors
Observation type: polyreactivity (PSR sort gate)

• QVQLVESGGGLVQAGGSLRLSCAASGITFGVYTMGWYRQAPGKEREFVAVISGRGGSTYYADSVKGRFTISRDNAKNTVYLQMNSLKPEDTAVYYCAADYYYIVDYWGQGTQVTVSS = high polyreactivity
• QVQLVESGGGLVQAGGSLRLSCAASGSIFYLNARGWYRQAPGKERELVASINRGGITYYADSVKGRFTISRDNAKNTVYLQMNSLKPEDTAVYYCAARSPYVSYRSNYYYWGQGTQVTVSS = high polyreactivity

###

Assay: yeast display, Sf9 membrane polyspecificity reagent, FACS + sequencing; frameworks hold sequencing errors
Observation type: polyreactivity (PSR sort gate)

Illustrative cases are given below, each with its answer.
- QVQLVESGGGLVQAGGSLRISCAASGRIFDNYAMGWNRQAPGKERELVAAISVSGDSTYYADSVKGRFTISRDNAKNTVYLQMNSLKPEDTAVYYCAVDPDSYWYLTWADEMYYWGQGTQVTVSS: high polyreactivity
- QVQLVESGGGLVHAGGSLRLSCAASGRTFRYYTMGWYRQAPGKEREFVAAISSTGGTYYADSVKGRFTISRDNAKNTVYLQMNSLKPEDTAVYYCAATFIQVVVNVQLYDYDYWGQGTQVTVSS: low polyreactivity
- QVQLVESGGGLVQAGGSLRLSCAASGSIFSFNAMGWYRQAPGKERELVAVITQRGGSTYYADSVKGRFTISRDNAKNTVYLQMNSLKPEDTAVYYCAARTPRGYYYWGQGTQVTVSS: high polyreactivity
- QDQLVESGGGLVQAGGSLRLSCAASGRTFPWYAMGWYRPAPGKERELVAAISTGGSRTYYADSVKGRFTISRDNAKNTVYLQMNSLKPEDTAVYYCNARNTLRDYPYGYWGQGTQVTVSS: high polyreactivity
- QVQLVESGGGLVQAGGSLRLSCAASGRTFTYYAMGWYRQAPGKERELVAAISSTGGSTYYADSVKGRFTISRDNAKNTVTLQMNSLKPEDTAVYYCNVAFDDFDYWGQGTQVTVSS: low polyreactivity

Query (sequence): QVQLVESGGGLVQAGGSLRLSCAASGSTFYLYGMGWYRQAPGKERELVAAITYSGGSTYYADSVKGRFTISRDNAKNTVYLQMNSLKPEDTAVYYCNARSQWRSSRFYYWGQGTQVTVSS ; field requested: polyreactivity (PSR sort gate)
high polyreactivity

Query (sequence): QVQLVESGGGLVQAGGSLRLSCAASGRIFRYYAMGWYRQAPGKERELVAAITSDGRTYYADSVKGRFTISRDNAKNTVYLQMNSLKPEDTAVYYCAADHHSYRYGGYYYWGQGTQVTVSS ; field requested: polyreactivity (PSR sort gate)
low polyreactivity

###

Assay: yeast display, Sf9 membrane polyspecificity reagent, FACS + sequencing; frameworks hold sequencing errors
Observation type: polyreactivity (PSR sort gate)

Illustrative cases are given below, each with its answer.
• QVQLVESGGGLVQAGGSLRLSCAASGRTFFTNAMGWSRQAPGKERELVATISQSGGSTYYADSVKGRFTISRDNAKNTVYLQMNCLKPEDTAVYYCAALSRYWVVRMDYWGQGTHVTVSS = high polyreactivity
• QVQLVETGGGLVQAGGSLRLSCAASGGILVGYALGWYRQAPGKERELVAAINYSGGSTNYADSVKGRFTISRDNAKNTVYLQMNSLKPEDTAVYYCAARSTARYGYWGQGTQVTVSS = low polyreactivity
• QVQLVESGGGLVQAGGSLRLSCAASGFTFYYYAMGWYRQAPGKERELVAGISKSGGITYYADSVKGRFTISLDNAKNTVYLQMNSLKPEDTAVYYCAAAEWYQFFIYRYTYEYWGQGTQVTVSS = low polyreactivity
• QVQLVESGGGLVQAGGSLRLSCAASGGTFDSYVMGWYRQAPGKERELVAAITWSGGSTYYAESVKGRFTISRDNAKNTVYLQMNSLKPEDTAVYYCNNGGSTTYAYDYWGQGTQVTVSS = low polyreactivity
• QVQLVESGGGLVQAGGSLRLSCAASGSTVYYNAMGWYRQAPGKERELVADITTSGDSTYYADSVKGRFTISRDNAKNTVYFQMNSLKPEDTAVYYCNAGVVGDYPYWGLMDYWGQGTQVTVSS = high polyreactivity

Query (sequence): QVQHVESGGGLVQAGGSLRLSCAASGSIIPSNVMGWYRQATGKEREFVAGITFRVGSTYYADSVKGRFTISLDNAKNTVYLQMNSLKPEDTAVYYCAALIRAVDRYTYRYGYWGQGTQVTVSS ; field requested: polyreactivity (PSR sort gate)
high polyreactivity

Query (sequence): QVQLVESGGGLVQAGGSLRLSCAASGSTFADNAMGWDRQAPGKERELVAAISSDGSTNYADSVKGRFTISRDNAKNTVYLQMNSLKPEDTAVYYCNADGVYLGYPVVPPEGDYWGQGTQVTVSS ; field requested: polyreactivity (PSR sort gate)
low polyreactivity

Query (sequence): QDQLVESGGGLVQAGGSLRLSFAASGLTFRYYAMGWYRQAPGKERELVAAISSGGRTDYADSVKGRFTISRDNAKNTVYLQMNSLKPEDTAVYYCNARGRIRSYRQVRTYSAYNYWGQGTQVTVSS ; field requested: polyreactivity (PSR sort gate)
high polyreactivity
